# credit: ChEMBL document CHEMBL3351392

This section presents compounds with their documented pIC50 values.
target: Neuronal acetylcholine receptor; alpha3/beta4 (Rattus norvegicus, UniProt P04757+P12392)
Sequence (P04757 whole entry): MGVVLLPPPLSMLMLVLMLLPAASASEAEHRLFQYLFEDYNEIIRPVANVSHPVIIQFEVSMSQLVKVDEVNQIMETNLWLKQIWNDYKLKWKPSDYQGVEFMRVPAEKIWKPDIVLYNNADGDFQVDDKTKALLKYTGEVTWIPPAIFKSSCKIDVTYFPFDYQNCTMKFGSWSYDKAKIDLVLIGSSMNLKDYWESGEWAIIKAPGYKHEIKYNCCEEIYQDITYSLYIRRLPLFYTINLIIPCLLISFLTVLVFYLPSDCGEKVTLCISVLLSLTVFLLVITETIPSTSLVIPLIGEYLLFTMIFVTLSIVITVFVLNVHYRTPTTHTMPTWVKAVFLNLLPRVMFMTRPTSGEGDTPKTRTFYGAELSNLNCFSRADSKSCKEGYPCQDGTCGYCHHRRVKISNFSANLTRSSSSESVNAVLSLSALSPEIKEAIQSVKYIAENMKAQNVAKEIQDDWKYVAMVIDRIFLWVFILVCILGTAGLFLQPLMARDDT
Sequence (P12392 whole entry): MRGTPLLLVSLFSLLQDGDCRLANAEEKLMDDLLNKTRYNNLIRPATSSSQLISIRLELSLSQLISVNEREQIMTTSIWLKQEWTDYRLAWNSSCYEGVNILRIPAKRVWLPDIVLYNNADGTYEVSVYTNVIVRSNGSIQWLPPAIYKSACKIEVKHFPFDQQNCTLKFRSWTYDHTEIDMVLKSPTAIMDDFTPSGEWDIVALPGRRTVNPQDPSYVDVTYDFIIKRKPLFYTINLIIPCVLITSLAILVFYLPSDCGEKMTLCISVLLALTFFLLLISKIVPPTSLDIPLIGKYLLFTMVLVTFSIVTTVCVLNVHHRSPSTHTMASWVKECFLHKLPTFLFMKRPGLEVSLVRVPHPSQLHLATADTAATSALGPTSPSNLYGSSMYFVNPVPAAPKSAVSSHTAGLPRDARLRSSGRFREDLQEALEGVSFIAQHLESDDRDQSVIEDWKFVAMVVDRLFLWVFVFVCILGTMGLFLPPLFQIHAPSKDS
procedure-details: Non-competitive inhibition of rat alpha3beta4 nAChR expressed in KX cells assessed as reduction in current by whole-cell patch clamp assay
Format: cell-based
pIC50: −log10 of the molar value.

{"columns": ["given-smiles", "pIC50"],
 "data": [
  ["COc1ccc2c(c1)[C@]13CCCC[C@@H]1[C@H](C2)N(CCCC#N)CC3", 4.06],
  ["COc1ccc2c(c1)[C@]13CCCC[C@@H]1[C@H](C2)N(CC#N)CC3", 4.98],
  ["COc1ccc2c(c1)[C@]13CCCC[C@@H]1[C@H](C2)N(CC1OCCO1)CC3", 5.71],
  ["COc1ccc2c(c1)[C@]13CCCC[C@@H]1[C@H](C2)N(CCC1OCCO1)CC3", 5.15],
  ["COc1ccc2c(c1)[C@]13CCCC[C@@H]1[C@H](C2)N(CCC#N)CC3", 3.75]
]}

---

target: Neuronal acetylcholine receptor; alpha3/beta4 (Rattus norvegicus, UniProt P04757+P12392)
procedure-details: Non-competitive inhibition of rat alpha3beta4 nAChR expressed in KX cells assessed as reduction in current by whole-cell patch clamp assay
pIC50: −log10 of the molar value.
This section presents compounds with their documented pIC50 values.

{"columns": ["compound", "pIC50"],
 "data": [
  ["COc1ccc2c(c1)[C@]13CCCC[C@@H]1[C@H](C2)N(C)CC3 [DEXTROMETHORPHAN]", 4.96],
  ["COc1ccc2c(c1)[C@]13CCCC[C@@H]1[C@H](C2)NCC3", 5.51],
  ["CCC(=O)CN1CC[C@@]23CCCC[C@@H]2[C@@H]1Cc1ccc(OC)cc13", 5.60],
  ["COc1ccc2c(c1)[C@]13CCCC[C@@H]1[C@H](C2)N(CCC(C)=O)CC3", 5.59],
  ["COc1ccc2c(c1)[C@]13CCCC[C@@H]1[C@H](C2)N(CC1=NCCN1)CC3", 5.18],
  ["COc1ccc2c(c1)[C@]13CCCC[C@@H]1[C@H](C2)N(CC(N)=O)CC3", 4.38]
]}
